# system.tested: HLA-B*57:01
# experiment: IEDB peptide-MHC binding, purified MHC/competitive/fluorescence; filed as Kd, often an IC50 or EC50 that approximates it; bounds were set here for any values at or beyond the usual limits of such assays
# measurement.setup: source organism: Salmonella enterica subsp. enterica serovar Choleraesuis str. SC-B67
pKd: −log10 of the molar value.
reported.endpoint: pKd

IN: Hello, I am looking for reported pKd with HLA-B*57:01 for `GIALAVPCV` . Could you help?
OUT: ≤ 4.70

---

# system.tested: HLA-B*08:01
# experiment: IEDB peptide-MHC binding, purified MHC/direct/fluorescence; filed as Kd, often an IC50 or EC50 that approximates it; bounds were set here for any values at or beyond the usual limits of such assays
# measurement.setup: source organism: Influenza A virus (A/turkey/Minnesota/1200/1980(H7N3))
reported.endpoint: Kd

IN: # get_value(readout='Kd', item= `VTTEVAFGL` )
OUT: ≥ 20 µM
